src = patent US10688093B2

subject.of.test: full-length recombinant human FYN A (Homo sapiens (Human), UniProt P06241)
Sequence (P06241 whole entry): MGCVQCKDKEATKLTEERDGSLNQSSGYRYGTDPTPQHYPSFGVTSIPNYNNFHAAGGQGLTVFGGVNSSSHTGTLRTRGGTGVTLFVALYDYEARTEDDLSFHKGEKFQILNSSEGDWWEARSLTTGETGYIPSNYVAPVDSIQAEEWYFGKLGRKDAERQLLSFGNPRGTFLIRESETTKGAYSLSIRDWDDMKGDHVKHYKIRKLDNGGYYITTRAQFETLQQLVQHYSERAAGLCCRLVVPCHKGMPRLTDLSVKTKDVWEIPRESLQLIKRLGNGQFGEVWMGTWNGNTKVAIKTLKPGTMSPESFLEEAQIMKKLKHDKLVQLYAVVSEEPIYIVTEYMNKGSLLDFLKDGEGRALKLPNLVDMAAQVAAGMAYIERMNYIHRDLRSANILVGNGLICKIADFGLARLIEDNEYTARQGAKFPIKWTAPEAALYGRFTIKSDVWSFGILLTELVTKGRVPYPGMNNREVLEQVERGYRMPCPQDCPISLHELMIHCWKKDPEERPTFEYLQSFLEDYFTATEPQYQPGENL
assay.notes: ADP-Glo Kinase Assay of FYN kinase inhibition
Type: biochemical
experimental.setup: primary screen, initial compounds
Rule: measured IC50 below 1000 nM gets y; anything equal to or greater than 1000 nM gets n.

In [3]: df
Out[3]:
                            molecular_string  class_assignment
 0      Fc1cccc(-c2ccc3ncc(-c4ccncc4)n3n2)c1                 y
 1  CN(C)CCNC(=O)c1cccc(-c2ccc3ncc(-c4ccc5c(c4)OCO5)n3n2)c1                 y
 2  Nc1cccc(-c2ccnc3[nH]nc(-c4cccc(F)c4)c23)c1                 n
 3  O=C(NCCO)c1cccc(-c2ccc3ncc(-c4ccc(CO)cc4)n3n2)c1                 n
 4  COc1ccccc1-c1n[nH]c2nccc(-c3cccc(C(C)=O)c3)c12                 n
 5        COc1cc(-c2cc(-c3ccccc3)cnc2N)ccc1O                 n
 6       c1ccc(-c2cnc3ccc(-c4ccncc4)nn23)cc1                 n
 7  COc1ccc(-c2cnc(N)c(-c3ccc(CO)cc3)c2)cc1OC                 n
 8      CN(C)c1cccc(-c2cc(-c3cccnc3)cnc2N)c1                 n
 9     COc1cc(-c2ccc3ncc(-c4cccs4)n3n2)ccc1O                 y
10  CC(C)N1CCN(c2ccc(-c3cn4c(-c5cccc(O)c5)cnc4cn3)cc2)CC1                 n
11  CC(=O)c1cccc(-c2ccc3ncc(-c4cccc(O)c4)n3n2)c1                 n
12  COc1cc(-c2cc(-c3cc(C)c(O)c(C)c3)cnc2N)cc(OC)c1OC                 y
13  COc1cc(-c2cnc(N)c(-c3cccc(N(C)C)c3)c2)ccc1O                 n
14    Cn1cc(-c2cnc3ccc(Cc4ccc(F)cc4)nn23)cn1                 n
15       Oc1cccc(-c2cnc3ccc(-c4ccoc4)nn23)c1                 n
16  COc1cc(-c2n[nH]c3nccc(-c4cccc(O)c4)c23)cc(OC)c1OC                 n
17  CCOc1cccc(-c2cn3c(-c4ccc(O)c(OC)c4)cnc3cn2)c1                 n
18  COc1ccc(-c2cnn3ccc(NCc4cccnc4)nc23)cc1OC                 n

###

subject.of.test: full-length recombinant human FYN A (Homo sapiens (Human))
assay.notes: ADP-Glo Kinase Assay of FYN kinase inhibition
Assay type: biochemical
experimental.setup: primary screen, initial compounds
From the text: The chemical library was comprised of the SoftFocus ATP-competitive hinge binding compounds described by Harris, C. J., Hill, R. D., Sheppard, D. W., et al., The Design and Application of Target-Focused Compound Libraries. Combinatorial Chemistry and High Throughput Screening 14:521-31 (2011). […]
value.type: IC50 (nM)

                                   molecule  readout_unit  reported
0  COc1ccccc1-c1n[nH]c2nccc(-c3ccsc3)c12 [Compound 498]            nM      2670
1  Fc1ccc(-c2cnc3sc(NCCN4CCOCC4)nn23)cc1Cl [Compound 561]            nM      4820
2  c1cncc(-c2ccc3ncc(-c4ccc5c(c4)OCO5)n3n2)c1 [Compound 360]            nM       688
3  Oc1cccc(-c2cnc3ccc(-c4ccccc4)nn23)c1 [Compound 372]            nM       894
4  COc1cc(-c2cnc3cnc(-c4ccccc4Cl)cn23)ccc1O [388_0314_4027]            nM      2540
5  CC(=O)c1cccc(-c2cnc3ccc(NCc4cccs4)nn23)c1 [229_0146_4145]            nM       441
6  COc1cc(-c2cnc3cnc(-c4cnn(C)c4)cn23)ccc1O [388_0314_8400]            nM       746
7  Cn1cc(-c2cnc3cnc(-c4ccccc4Oc4ccccc4)cn23)cn1 [Compound 229]            nM      1820
8  c1ccc(-c2cn3c(-c4ccsc4)cnc3cn2)cc1 [388_0074_0061]            nM      3950

###

subject.of.test: full-length recombinant human FYN A (Homo sapiens (Human), UniProt P06241)
assay.notes: ADP-Glo Kinase Assay of FYN kinase inhibition
Type: biochemical
experimental.setup: primary screen, initial compounds
Text: The chemical library was comprised of the SoftFocus ATP-competitive hinge binding compounds described by Harris, C. J., Hill, R. D., Sheppard, D. W., et al., The Design and Application of Target-Focused Compound Libraries. Combinatorial Chemistry and High Throughput Screening 14:521-31 (2011). […]
Measured IC50 accompanies every entry in the list below.
value.type: IC50 (nM)

>>> df
                                    compound  readout_unit  reported
 0  NC(=O)c1cccc(-c2cnc3sc(NCCCO)nn23)c1 [Compound 264]            nM      2880
 1  COc1cc(-c2cnc3cnc(-c4ccc(N5CCN(C)CC5)nc4)cn23)ccc1O [388_0314_0016]            nM      1130
 2  O=C(NCCO)c1cccc(-c2ccc3ncc(-c4cccc(O)c4)n3n2)c1 [Compound 457]            nM       352
 3  CCC(CO)Nc1cncc(-c2ccc(O)cc2)n1 (stereo not shown) [035_0153_0080]            nM     15300
 4  Cn1cc(-c2cnc3sc(NCCc4ccc(S(N)(=O)=O)cc4)nn23)cn1 [Compound 261]            nM      2260
 5  COc1ccccc1-c1n[nH]c2nccc(-c3ccoc3)c12 [Compound 516]            nM      4900
 6  CNc1ccc2ncc(-c3cccc(NC(C)=O)c3)n2n1 [Compound 437_0081]            nM      1750
 7  COc1ccccc1-c1ccc2ncc(-c3cccc(O)c3)n2n1 [Compound 417]            nM      2740
 8  COc1cc(-c2cc(-c3ccc(S(C)(=O)=O)cc3)cnc2N)ccc1O [382_0314_0174]            nM       349
 9  CCCNc1ccc2ncc(-c3ccsc3)n2n1 [229_0226_0074]            nM      4040
10  CN1CCN(c2ccc(-c3cn4c(-c5ccc(O)cc5)cnc4cn3)cc2)CC1 [388_0080_0218]            nM       678
11  OCc1ccc(-c2cnc3ccc(Cc4ccccc4)nn23)cc1 [Compound 479]            nM      3230
12  c1cncc(-c2cnc3sc(NCc4ccco4)nn23)c1 [Compound 579]            nM      3160
13  CN(C)C(=O)c1cccc(-c2cnc3sc(NCC4CCOCC4)nn23)c1 [Compound 268]            nM      2730
14  Fc1ccc(-c2ccc3ncc(-c4ccc5c(c4)OCO5)n3n2)cc1 [Compound 415]            nM      7600
15  CCC(CO)Nc1ccc2ncc(-c3ccc(OC)cc3)n2n1 (stereo not shown) [229_0153_0280]            nM      1280
16  CN1CCN(c2ccc(-c3cn4c(-c5cccc(O)c5)cnc4cn3)cn2)CC1 [Compound 230]            nM      3140
17  Nc1ccc(-c2cn3c(-c4ccc(Oc5ccccc5)cc4)cnc3cn2)cn1 [Compound 221]            nM      1720
18  COc1cc(-c2cc(-c3cc(C)c(O)c(C)c3)cnc2N)ccc1O [382_0314_0315]            nM       526

###

Measured pIC50 accompanies every entry in the list below.
subject.of.test: full-length recombinant human FYN A (Homo sapiens (Human), UniProt P06241)
assay.notes: ADP-Glo Kinase Assay of FYN kinase inhibition
Assay type: biochemical
experimental.setup: primary screen, initial compounds
pIC50: −log10 of the molar value.
value.type: pIC50

In [3]: df
Out[3]:
                                   compound  reported
0  CN(C)CCCNC(=O)c1ccc(-c2cn3c(-c4ccc(Cl)cc4)cnc3cn2)cc1      5.31
1  COc1ccc(-c2cnc3sc(NC4CCC(O)CC4)nn23)cc1OC (centres unmarked)      6.32
2      c1ccc(-c2cnc3ccc(NCc4ccncc4)nn23)cc1      5.39
3        Cc1ccccc1CNc1nn2c(-c3cccnc3)cnc2s1      5.97
4  OCc1ccc(-c2cnc3ccc(-c4cccc(F)c4)nn23)cc1      5.53
